system_name: BSA (UniProt P02769)
Sequence (P02769 25-607 limits assumed): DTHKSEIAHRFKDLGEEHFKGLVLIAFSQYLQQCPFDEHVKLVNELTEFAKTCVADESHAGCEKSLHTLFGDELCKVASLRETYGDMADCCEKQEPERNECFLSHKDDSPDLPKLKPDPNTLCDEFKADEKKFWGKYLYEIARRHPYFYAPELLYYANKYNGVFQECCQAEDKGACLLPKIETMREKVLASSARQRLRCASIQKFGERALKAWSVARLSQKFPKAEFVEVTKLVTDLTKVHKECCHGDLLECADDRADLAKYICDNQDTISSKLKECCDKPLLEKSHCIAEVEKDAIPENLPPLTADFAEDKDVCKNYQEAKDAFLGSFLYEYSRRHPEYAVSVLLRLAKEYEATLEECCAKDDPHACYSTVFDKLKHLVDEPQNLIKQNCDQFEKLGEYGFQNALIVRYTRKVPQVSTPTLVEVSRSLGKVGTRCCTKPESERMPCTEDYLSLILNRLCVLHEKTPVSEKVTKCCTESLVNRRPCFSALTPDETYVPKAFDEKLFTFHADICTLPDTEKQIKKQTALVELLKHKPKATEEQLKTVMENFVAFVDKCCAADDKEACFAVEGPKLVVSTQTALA
assay_protocol: scFv ELISA
experimental_endpoint: OD450
Note to self: number, then unit, no commentary.

Known OD450 results, listed for orientation:
binder: PcOxP_DB02_F10 (scFv, V domains shown, scFv in periplasmic extract) VH: EVQLLESGGGLVQPGGSLRLSCAASGFTFSDQYMEWVRQAPGKGLEWVAASRNKANDYTTEYADSVKGRFTISRDNSKNTLYLQMNSLRAEDTAVYYCARDYYGSSYWYFDVWGQGTLVTVSS VL: DIVMTQSPDSLAVSLGERATINCTSSQSVLSSKHNKNYLAWYQQKPGQPPKLLIYGASNRYWGVPDRFSGSGSGTDFTLTISSLQAEDVAVYYCAQFYSYPLTFGGGTKVEIK
result: 0.09 OD450
//
binder: PcOxP_DB03_B01 (scFv, V domains shown, scFv in periplasmic extract) VH: EVQLLESGGGLVQPGGSLRLSCAASGFTFSSYYMEWVRQAPGKGLEWVAASRNTANDYTTEYADSVKGRFTISRDNSKNTLYLQMNSLRAEDTAVYYCARDYYGSSYWYFDVWGQGTLVTVSS VL: DIVMTQSPDSLAVSLGERATINCTASESLYSSKHKVHYLAWYQQKPGQPPKLLIYGASNREIGVPDRFSGSGSGTDFTLTISSLQAEDVAVYYCAQFYSYPLTFGGGTKVEIK
result: 0.06 OD450

In the following, a different binder is considered.
Exercise: Any idea what OD450 was measured for PcOxP_DB03_H03 (scFv, V domains shown, scFv in periplasmic extract) VH: EVQLLESGGGLVQPGGSLRLSCAASGFTGSDFYMEWVRQAPGKGLEWVAASRNKWNDYTTEYADSVKGRFTISRDNSKNTLYLQMNSLRAEDTAVYYCARDYYGSSYWYFDVWGQGTLVTVSS VL: DIQMTQSPSSLSASVGDRVTITCTASESLSSSKHKHYLAWYQQKPGKAPKLLIYGASSRYSGVPSRFSGSGSGTDFTLTISSLQPEDFATYYCAQFYSYPLTFGGGTKVEIK ?
Key: 0.12 OD450
